Source listed as ChEMBL document CHEMBL2218924.

subject of test: Casein kinase I isoform gamma-1 (Homo sapiens)
test settings: at 10 µM
Description: Millipore: Percentage of residual kinase activity of CSNK1G1 at 10uM relative to control. Control inhibitor: Phosphoric acid* at 0.3uM. Buffer: 8 mM MOPS pH 7.0, 0.2 mM EDTA
Tick 1 if residual activity is 60% or greater. Tick -1 if residual activity is less than 60%.

>>> answer_label("COc1ccc2c(c1)/C(=C/c1cnc[nH]1)C(=O)N2")
1
>>> answer_label("COC(=O)[C@@]1(O)C[C@H]2O[C@]1(C)n1c3ccccc3c3c4c(c5c6ccccc6n2c5c31)C(=O)NC4")
-1
>>> answer_label("O=c1[nH]c2ccccc2n1C1CCN(Cc2ccc(-c3nc4cc5[nH]cnc5cc4nc3-c3ccccc3)cc2)CC1")
1
>>> answer_label("CC(C)[C@H](CO)Nc1nc(Nc2cccc(Cl)c2)c2ncn(C(C)C)c2n1")
-1
>>> answer_label("CC(C)(C)c1cc(C=C(C#N)C#N)cc(Br)c1O")
1
>>> answer_label("O=C1Nc2ccc3ncsc3c2/C1=C/c1c[nH]cn1")
-1
